# IC50 listing for each entry below
Target: human α1G subunits (T-type channels) (Homo sapiens)
Construct: expressed in transfected cells
Sequence (O43497 whole entry): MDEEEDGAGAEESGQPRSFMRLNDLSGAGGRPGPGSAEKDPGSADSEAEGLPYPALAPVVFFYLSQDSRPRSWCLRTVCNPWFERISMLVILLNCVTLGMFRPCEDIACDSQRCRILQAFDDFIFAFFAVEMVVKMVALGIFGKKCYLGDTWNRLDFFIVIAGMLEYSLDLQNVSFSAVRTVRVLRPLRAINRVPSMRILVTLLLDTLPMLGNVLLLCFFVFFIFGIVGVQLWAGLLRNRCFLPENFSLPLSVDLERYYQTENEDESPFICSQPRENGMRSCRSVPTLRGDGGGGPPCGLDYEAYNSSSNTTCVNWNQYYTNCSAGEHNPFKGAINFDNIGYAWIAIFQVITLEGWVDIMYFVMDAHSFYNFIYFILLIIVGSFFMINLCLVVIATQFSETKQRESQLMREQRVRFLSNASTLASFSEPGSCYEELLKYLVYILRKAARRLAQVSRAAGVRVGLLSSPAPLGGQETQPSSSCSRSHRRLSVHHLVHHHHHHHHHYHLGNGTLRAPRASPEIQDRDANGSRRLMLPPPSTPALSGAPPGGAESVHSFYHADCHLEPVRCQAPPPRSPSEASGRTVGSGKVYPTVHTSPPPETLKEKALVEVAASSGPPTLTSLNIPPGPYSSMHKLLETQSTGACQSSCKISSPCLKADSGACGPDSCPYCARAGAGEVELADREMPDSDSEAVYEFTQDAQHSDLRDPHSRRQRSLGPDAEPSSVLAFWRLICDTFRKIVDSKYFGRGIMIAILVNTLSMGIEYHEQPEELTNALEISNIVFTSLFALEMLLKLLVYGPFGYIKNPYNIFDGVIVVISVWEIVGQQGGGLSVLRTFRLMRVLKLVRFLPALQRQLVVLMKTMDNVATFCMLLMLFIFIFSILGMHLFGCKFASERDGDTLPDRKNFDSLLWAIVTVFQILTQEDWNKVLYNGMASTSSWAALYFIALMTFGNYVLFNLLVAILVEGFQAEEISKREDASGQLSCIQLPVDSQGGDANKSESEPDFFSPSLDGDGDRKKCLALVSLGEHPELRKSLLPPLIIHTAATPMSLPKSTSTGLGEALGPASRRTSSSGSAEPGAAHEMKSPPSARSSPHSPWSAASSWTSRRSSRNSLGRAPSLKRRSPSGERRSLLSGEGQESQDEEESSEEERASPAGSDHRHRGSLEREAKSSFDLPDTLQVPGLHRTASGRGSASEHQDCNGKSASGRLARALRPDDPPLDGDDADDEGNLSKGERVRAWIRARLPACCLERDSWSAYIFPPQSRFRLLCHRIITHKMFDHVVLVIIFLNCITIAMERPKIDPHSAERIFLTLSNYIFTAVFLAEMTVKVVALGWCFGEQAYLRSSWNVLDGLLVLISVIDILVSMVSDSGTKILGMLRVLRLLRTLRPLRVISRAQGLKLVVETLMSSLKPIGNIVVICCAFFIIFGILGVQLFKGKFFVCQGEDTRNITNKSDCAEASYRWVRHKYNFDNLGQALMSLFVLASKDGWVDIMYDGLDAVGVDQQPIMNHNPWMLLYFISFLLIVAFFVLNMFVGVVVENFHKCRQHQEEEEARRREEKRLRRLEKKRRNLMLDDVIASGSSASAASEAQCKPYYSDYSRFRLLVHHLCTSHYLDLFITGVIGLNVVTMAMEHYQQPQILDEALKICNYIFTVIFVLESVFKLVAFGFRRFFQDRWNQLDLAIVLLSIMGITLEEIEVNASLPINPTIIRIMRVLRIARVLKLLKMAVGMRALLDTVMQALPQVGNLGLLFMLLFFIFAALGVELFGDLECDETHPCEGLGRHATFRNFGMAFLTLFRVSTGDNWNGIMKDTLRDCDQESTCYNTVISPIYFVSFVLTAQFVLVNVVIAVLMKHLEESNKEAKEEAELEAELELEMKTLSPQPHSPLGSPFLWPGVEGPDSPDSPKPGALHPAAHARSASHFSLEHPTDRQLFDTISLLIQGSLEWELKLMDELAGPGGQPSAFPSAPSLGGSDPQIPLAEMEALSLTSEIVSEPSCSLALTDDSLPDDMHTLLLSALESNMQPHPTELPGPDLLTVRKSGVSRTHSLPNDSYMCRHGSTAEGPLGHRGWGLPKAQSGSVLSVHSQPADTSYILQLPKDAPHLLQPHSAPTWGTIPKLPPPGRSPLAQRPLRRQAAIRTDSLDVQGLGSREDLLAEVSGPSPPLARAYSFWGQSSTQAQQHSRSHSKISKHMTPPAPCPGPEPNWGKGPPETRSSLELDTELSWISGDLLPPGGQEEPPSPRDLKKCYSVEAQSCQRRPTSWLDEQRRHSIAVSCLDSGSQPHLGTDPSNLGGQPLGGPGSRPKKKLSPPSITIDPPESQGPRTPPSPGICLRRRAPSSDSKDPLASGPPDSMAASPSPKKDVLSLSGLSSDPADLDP
Procedure details: Block of α1G T-type channels, patch clamp in HEK cell lines
Format: cell-based
Condition label: 100 mV; non-inactivating protocol; read-out: Block of α1G T-type Channels IC50, 100 mV
Assay metric: IC50 (µM)

Molecule | Measure unit | Recorded number
COc1c(C(C)(C)C)cc(CN2CCN(CCCCCC(c3ccc(F)cc3)c3ccc(F)cc3)C(=O)C2)cc1C(C)(C)C [Compound P56] | µM | 0.095
CCOC(=O)C1CN(Cc2cc(OC)c(OC)c(OC)c2)CCN1CCCCCC(c1ccc(F)cc1)c1ccc(F)cc1 (centres unmarked) [Compound P36] | µM | 0.202
COc1c(C(C)(C)C)cc(C(=O)N2CCN(C(=O)CCCCC(c3ccc(F)cc3)c3ccc(F)cc3)C[C@@H]2C)cc1C(C)(C)C [Compound P104] | µM | 0.579
O=C(NCC(=O)N1CCN(CCCCCC(c2ccc(F)cc2)c2ccc(F)cc2)CC1)c1ccc(Cl)cc1 [Compound P83] | µM | 0.173
Cc1ccc(C(=O)NCC(=O)N2CCN(CCCCCC(c3ccc(F)cc3)c3ccc(F)cc3)CC2)cc1 [Compound P84] | µM | 0.37

---

Target: rat N-type channels (α1B+α2δ+β1b subunits) (Rattus norvegicus)
Construct: expressed in transfected cells
Procedure details: Whole cell patch clamp, N-type calcium channel block in HEK 293 cells
Format: cell-based
Condition label: 0.067 Hz; read-out: IC50 for N-type Calcium Channel Block (0.067 Hz)
# strict inequality: IC50 < 400 nM yields fulfilled, everything else yields not fulfilled

Compound | Label class
CC(C)(C)c1cc(C(=O)N2CCN(C(=O)CCCCC(c3ccc(F)cc3)c3ccc(F)cc3)C(=O)C2)cc(C(C)(C)C)c1O [Compound P57] | not fulfilled
Fc1ccc(C(CCCCCN2CCN(Cc3ccc(OC(F)(F)F)cc3)CC2)c2ccc(F)cc2)cc1 [Compound P77] | fulfilled
COc1cc(CN2CCN(CCCCCC(c3ccc(F)cc3)c3ccc(F)cc3)CC2)cc(OC)c1O [Compound P101] | fulfilled
Oc1c(Br)cc(CN2CCN(CCCCCC(c3ccc(F)cc3)c3ccc(F)cc3)CC2)cc1Br [Compound P76] | not fulfilled
COc1cc(CN2CCN(CCCCCC(c3ccc(F)cc3)c3ccc(F)cc3)[C@@H](C(=O)O)C2)cc(OC)c1OC [Compound P61] | not fulfilled
CCOC(=O)C1CN(Cc2cc(OC)c(OC)c(OC)c2)CCN1CCCCCC(c1ccc(F)cc1)c1ccc(F)cc1 (centres unmarked) [Compound P36] | fulfilled
Fc1ccc(C(CCCCCN2CCN(CCOc3ccc4c(c3)OCO4)CC2)c2ccc(F)cc2)cc1 [Compound P65] | not fulfilled
COc1cc(CN2CCN(C(=O)CCCCCCCC(c3ccccc3)c3ccccc3)CC2)cc(OC)c1OC [Compound P102] | not fulfilled
O=C(CCCCC(c1ccc(F)cc1)c1ccc(F)cc1)N1CCN(C(=O)c2cc(C(F)(F)F)cc(C(F)(F)F)c2)CC1 [Compound P71] | not fulfilled
O=C1CN(C(=O)CCCCC(c2ccc(F)cc2)c2ccc(F)cc2)CCN1CCOc1ccc(F)cc1 [Compound P53] | fulfilled
O=C(NCC(=O)N1CCN(CCCCCC(c2ccc(F)cc2)c2ccc(F)cc2)CC1)c1ccc(Cl)cc1 [Compound P83] | fulfilled
CCOC(=O)C1CN(CCCCCC(c2ccc(F)cc2)c2ccc(F)cc2)CCN1Cc1cc(OC)c(OC)c(OC)c1 (centres unmarked) [Compound P62] | not fulfilled
Cc1ccc(C(=O)NCC(=O)N2CCN(CCCCCC(c3ccc(F)cc3)c3ccc(F)cc3)CC2)cc1 [Compound P84] | not fulfilled
COc1c(C(C)(C)C)cc(CN2CCN(CCCCCC(c3ccc(F)cc3)c3ccc(F)cc3)C(=O)C2)cc1C(C)(C)C [Compound P56] | fulfilled
Cc1cc(OC[C@@H](O)CN2CCN(C(=O)CCCCC(c3ccc(F)cc3)c3ccc(F)cc3)CC2)c(C)c(C)c1N [Compound P68] | not fulfilled
O=C(CCCCC(c1ccc(F)cc1)c1ccc(F)cc1)N1CCN(c2nc3ccccc3s2)CC1 [Compound P69] | not fulfilled
CC(C)(C)c1ccc(C(=O)N2CCN(C(=O)CCCCC(c3ccc(F)cc3)c3ccc(F)cc3)CC2)cc1 [Compound P72] | not fulfilled
COc1cc(CN2CCN(CCCCCCCCC(c3ccc(F)cc3)c3ccc(F)cc3)CC2)cc(OC)c1OC [Compound P40] | fulfilled
COc1cc(C(=O)N2CCN(C(=O)CCCCC(O)(c3ccc(F)cc3)c3ccc(F)cc3)CC2)cc(OC)c1OC [Compound P46] | not fulfilled
COc1cc(CN2CCN(C(=O)CCCCC(c3ccc(F)cc3)c3ccc(F)cc3)CC2=O)cc(OC)c1OC [Compound P48] | fulfilled
CC(C)(C)c1cc(C(=O)N2CCN(C(=O)CCCCC(c3ccc(F)cc3)c3ccc(F)cc3)CC2)cc(C(C)(C)C)c1O [Compound P28] | fulfilled
O=C(CCCCC(c1ccc(F)cc1)c1ccc(F)cc1)N1CCN(CCNc2ccccc2)CC1 [Compound P80] | not fulfilled
COc1cc(C(=O)N2CCN(C(=O)CCCCC(c3ccc(F)cc3)c3ccc(F)cc3)CC2)cc(OC)c1O [Compound P75] | not fulfilled
COc1ccc(C(=O)N2CCN(C(=O)CCCCC(c3ccc(F)cc3)c3ccc(F)cc3)CC2)cc1OC [Compound P64] | not fulfilled
Cc1cc(OC[C@@H](O)CN2CCN(CCCCCC(c3ccc(F)cc3)c3ccc(F)cc3)CC2)c(C)c(C)c1N [Compound P67] | not fulfilled
COc1cc(C(=O)N2CCN(C(=O)CCCC(O)C(c3ccc(F)cc3)c3ccc(F)cc3)CC2)cc(OC)c1OC (centres unmarked) [Compound P44] | fulfilled
COc1ccc(OCCN2CCN(CCCCCC(c3ccc(F)cc3)c3ccc(F)cc3)CC2)cc1OC [Compound P60] | not fulfilled
COc1c(C(C)(C)C)cc(C(=O)N2CCN(CCCCCC(c3ccc(F)cc3)c3ccc(F)cc3)C(=O)C2)cc1C(C)(C)C [Compound P54] | fulfilled
COc1c(C(C)(C)C)cc(C(=O)N2CCN(C(=O)CCCCC(c3ccc(F)cc3)c3ccc(F)cc3)CC2=O)cc1C(C)(C)C [Compound P55] | fulfilled

---

Target: rat N-type channels (α1B+α2δ+β1b subunits) (Rattus norvegicus, UniProt Q02294)
Construct: expressed in transfected cells
Procedure details: Whole cell patch clamp, N-type calcium channel block in HEK 293 cells
Format: cell-based
Condition label: 0.067 Hz; read-out: IC50 for N-type Calcium Channel Block (0.067 Hz)

Compound smiles | Measure unit | IC50
COc1c(C(C)(C)C)cc(CN2CCN(C(=O)CCCCC(c3ccc(F)cc3)c3ccc(F)cc3)CC2=O)cc1C(C)(C)C | nM | 400
COc1ccc(OCCN2CCN(C(=O)CCCCC(c3ccc(F)cc3)c3ccc(F)cc3)CC2)cc1OC | nM | 810
Fc1ccc(C(CCCCCN2CCN(Cc3ccc(Br)cc3)CC2)c2ccc(F)cc2)cc1 | nM | 439
COc1c(C(C)(C)C)cc(C(=O)N2CCN(C(=O)CCCCC(c3ccc(F)cc3)c3ccc(F)cc3)C[C@@H]2C)cc1C(C)(C)C | nM | 60
COc1ccc(CN2CCN(CCCCCC(c3ccc(F)cc3)c3ccc(F)cc3)CC2)cc1OC | nM | 319
COc1cc(OCCN2CCN(CCCCCC(c3ccc(F)cc3)c3ccc(F)cc3)CC2)cc(OC)c1OC | nM | 800
O=C(CCCCC(c1ccc(F)cc1)c1ccc(F)cc1)N1CCN(CCOc2ccc(F)cc2)CC1 | nM | 579

---

Target: rat N-type channels (α1B+α2δ+β1b subunits) (Rattus norvegicus, UniProt Q02294)
Construct: expressed in transfected cells
Procedure details: Whole cell patch clamp, N-type calcium channel block in HEK 293 cells
Assay type: cell-based
Condition label: 0.2 Hz; read-out: IC50 for N-type Calcium Channel Block (0.2 Hz)
pIC50: −log10 of the molar value.

Compound | pIC50
CC(C)(C)c1cc(C(=O)N2CCN(C(=O)CCCCC(c3ccc(F)cc3)c3ccc(F)cc3)CC2)cc(C(C)(C)C)c1O [Compound P28] | 6.66
COc1ccc(CN2CCN(CCCCCC(c3ccc(F)cc3)c3ccc(F)cc3)CC2)cc1OC [Compound P63] | 6.59
CC(C)(C)c1cc(C(=O)N2CCN(C(=O)CCCCC(c3ccc(F)cc3)c3ccc(F)cc3)C(=O)C2)cc(C(C)(C)C)c1O [Compound P57] | 6.40
O=C(CCCCC(c1ccc(F)cc1)c1ccc(F)cc1)N1CCN(CCNc2ccccc2)CC1 [Compound P80] | 6.18
COc1cc(C(=O)N2CCN(C(=O)CCCC(O)C(c3ccc(F)cc3)c3ccc(F)cc3)CC2)cc(OC)c1OC (centres unmarked) [Compound P44] | 6.74
O=C(NCC(=O)N1CCN(CCCCCC(c2ccc(F)cc2)c2ccc(F)cc2)CC1)c1ccc(Cl)cc1 [Compound P83] | 6.72
COc1ccc(OCCN2CCN(C(=O)CCCCC(c3ccc(F)cc3)c3ccc(F)cc3)CC2)cc1OC [Compound P59] | 6.37
COc1c(C(C)(C)C)cc(C(=O)N2CCN(C(=O)CCCCC(c3ccc(F)cc3)c3ccc(F)cc3)CC2=O)cc1C(C)(C)C [Compound P55] | 6.82
COc1cc(OCCN2CCN(CCCCCC(c3ccc(F)cc3)c3ccc(F)cc3)CC2)cc(OC)c1OC [Compound P66] | 6.26
Fc1ccc(C(CCCCCN2CCN(Cc3ccc(OC(F)(F)F)cc3)CC2)c2ccc(F)cc2)cc1 [Compound P77] | 6.66
COc1cc(CN2CCN(CCCCCC(c3ccc(F)cc3)c3ccc(F)cc3)CC2)cc(OC)c1O [Compound P101] | 6.69
Cc1ccc(C(=O)NCC(=O)N2CCN(CCCCCC(c3ccc(F)cc3)c3ccc(F)cc3)CC2)cc1 [Compound P84] | 6.53
Fc1ccc(C(CCCCCN2CCN(Cc3ccc(Br)cc3)CC2)c2ccc(F)cc2)cc1 [Compound P73] | 6.42
O=C(CCCCC(c1ccc(F)cc1)c1ccc(F)cc1)N1CCN(CCOc2ccc(F)cc2)CC1 [Compound P79] | 6.37
COc1ccc(OCCN2CCN(CCCCCC(c3ccc(F)cc3)c3ccc(F)cc3)CC2)cc1OC [Compound P60] | 6.10
COc1cc(C(=O)N2CCN(C(=O)CCCCC(c3ccc(F)cc3)c3ccc(F)cc3)CC2)cc(OC)c1O [Compound P75] | 6.22
COc1cc(CN2CCN(CCCCCCCCC(c3ccc(F)cc3)c3ccc(F)cc3)CC2)cc(OC)c1OC [Compound P40] | 6.67
COc1c(C(C)(C)C)cc(CN2CCN(C(=O)CCCCC(c3ccc(F)cc3)c3ccc(F)cc3)CC2=O)cc1C(C)(C)C [Compound P52] | 6.43
COc1cc(CN2CCN(C(=O)CCCCC(c3ccc(F)cc3)c3ccc(F)cc3)CC2=O)cc(OC)c1OC [Compound P48] | 7.25
Fc1ccc(C(CCCCCN2CCN(CCSc3nc4ccccc4s3)CC2)c2ccc(F)cc2)cc1 [Compound P74] | 6.37
O=C1CN(C(=O)CCCCC(c2ccc(F)cc2)c2ccc(F)cc2)CCN1CCOc1ccc(F)cc1 [Compound P53] | 6.01
O=C(CCCCC(c1ccc(F)cc1)c1ccc(F)cc1)N1CCN(c2nc3ccccc3s2)CC1 [Compound P69] | 6.39
COc1ccc(C(=O)N2CCN(C(=O)CCCCC(c3ccc(F)cc3)c3ccc(F)cc3)CC2)cc1OC [Compound P64] | 6.41
CCOC(=O)C1CN(CCCCCC(c2ccc(F)cc2)c2ccc(F)cc2)CCN1Cc1cc(OC)c(OC)c(OC)c1 (centres unmarked) [Compound P62] | 6.39
Cc1cc(OC[C@@H](O)CN2CCN(CCCCCC(c3ccc(F)cc3)c3ccc(F)cc3)CC2)c(C)c(C)c1N [Compound P67] | 6.03
Fc1ccc(C(CCCCCN2CCN(Cc3cc(C(F)(F)F)cc(C(F)(F)F)c3)CC2)c2ccc(F)cc2)cc1 [Compound P70] | 5.97
